DHCA substrate concentration at maximum specific activity by entry:
- System: 3α-HSDH; substrate DHCA
- Assay type: biochemical, Comamonas testosteroni
- condition set: purified enzyme variant
Value expressed in mM; do not type the unit.

Some solved entries appear below for comparison.
molecule	units text	value measured
L68A N: 3α-HSDH mutant L68A with N-terminal hexahistidine tag (protein, UniProt P80702 2-257, looked up, variant L68A, N-terminal His6 tag, 3α-HSDH mutant L68A with N-terminal hexahistidine tag) 3-alpha-hydroxysteroid …: SIIVISGCATGIGAATRKVLEAAGHQIVGIDIRDAEVIADLSTAEGRKQAIADVLAKCSKGMDGLVACAGLGPQTKVLGNVVSVNYFGATELMDAFLPALKKGHQPAAVVISSVASAHLAFDKNPLALALEAGEEAKARAIVEHAGEQGGNLAYAGSKNALTVAVRKRAAAWGEAGVRLNTIAPGATETPLLQAGLQDPRYGESIAKFVPPMGRRAEPSEMASVIAFLMSPAASYVHGAQIVIDGGIDAVMRPTQF	mM	0.1
L68A/T188S N: 3α-HSDH dual mutant L68A/T188S with N-terminal hexahistidine tag (protein, UniProt P80702 2-257, looked up, variant L68A T188S, N-terminal His6 tag, 3α-HSDH dual mutant L68A/T188S with N-terminal hexahistidine tag) 3-alpha-hydroxysteroid …: SIIVISGCATGIGAATRKVLEAAGHQIVGIDIRDAEVIADLSTAEGRKQAIADVLAKCSKGMDGLVACAGLGPQTKVLGNVVSVNYFGATELMDAFLPALKKGHQPAAVVISSVASAHLAFDKNPLALALEAGEEAKARAIVEHAGEQGGNLAYAGSKNALTVAVRKRAAAWGEAGVRLNTIAPGASETPLLQAGLQDPRYGESIAKFVPPMGRRAEPSEMASVIAFLMSPAASYVHGAQIVIDGGIDAVMRPTQF	mM	0.5
L68A/T188A N: 3α-HSDH dual mutant L68A/T188A with N-terminal hexahistidine tag (protein, UniProt P80702 2-257, looked up, variant L68A T188A, N-terminal His6 tag, 3α-HSDH dual mutant L68A/T188A with N-terminal hexahistidine tag) 3-alpha-hydroxysteroid …: SIIVISGCATGIGAATRKVLEAAGHQIVGIDIRDAEVIADLSTAEGRKQAIADVLAKCSKGMDGLVACAGLGPQTKVLGNVVSVNYFGATELMDAFLPALKKGHQPAAVVISSVASAHLAFDKNPLALALEAGEEAKARAIVEHAGEQGGNLAYAGSKNALTVAVRKRAAAWGEAGVRLNTIAPGAAETPLLQAGLQDPRYGESIAKFVPPMGRRAEPSEMASVIAFLMSPAASYVHGAQIVIDGGIDAVMRPTQF	mM	0.5
P185A/T188A N: 3α-HSDH dual mutant P185A/T188A with N-terminal hexahistidine tag (protein, UniProt P80702 2-257, looked up, variant P185A T188A, N-terminal His6 tag, 3α-HSDH dual mutant P185A/T188A with N-terminal hexahistidine tag) 3-alpha-hydroxysteroid …: SIIVISGCATGIGAATRKVLEAAGHQIVGIDIRDAEVIADLSTAEGRKQAIADVLAKCSKGMDGLVLCAGLGPQTKVLGNVVSVNYFGATELMDAFLPALKKGHQPAAVVISSVASAHLAFDKNPLALALEAGEEAKARAIVEHAGEQGGNLAYAGSKNALTVAVRKRAAAWGEAGVRLNTIAAGAAETPLLQAGLQDPRYGESIAKFVPPMGRRAEPSEMASVIAFLMSPAASYVHGAQIVIDGGIDAVMRPTQF	mM	0.5

Query: # DHCA substrate concentration at maximum specific activity lookup, item T188A N: 3α-HSDH mutant T188A with N-terminal hexahistidine tag (protein, UniProt P80702 2-257, looked up, variant T188A, N-terminal His6 tag, 3α-HSDH mutant T188A with N-terminal hexahistidine tag) 3-alpha-hydroxysteroid …: SIIVISGCATGIGAATRKVLEAAGHQIVGIDIRDAEVIADLSTAEGRKQAIADVLAKCSKGMDGLVLCAGLGPQTKVLGNVVSVNYFGATELMDAFLPALKKGHQPAAVVISSVASAHLAFDKNPLALALEAGEEAKARAIVEHAGEQGGNLAYAGSKNALTVAVRKRAAAWGEAGVRLNTIAPGAAETPLLQAGLQDPRYGESIAKFVPPMGRRAEPSEMASVIAFLMSPAASYVHGAQIVIDGGIDAVMRPTQF
Response: 0.5

Query: Look at this molecule and give its reported DHCA substrate concentration at maximum specific activity. T188S N: 3α-HSDH mutant T188S with N-terminal hexahistidine tag (protein, UniProt P80702 2-257, looked up, variant T188S, N-terminal His6 tag, 3α-HSDH mutant T188S with N-terminal hexahistidine tag) 3-alpha-hydroxysteroid …: SIIVISGCATGIGAATRKVLEAAGHQIVGIDIRDAEVIADLSTAEGRKQAIADVLAKCSKGMDGLVLCAGLGPQTKVLGNVVSVNYFGATELMDAFLPALKKGHQPAAVVISSVASAHLAFDKNPLALALEAGEEAKARAIVEHAGEQGGNLAYAGSKNALTVAVRKRAAAWGEAGVRLNTIAPGASETPLLQAGLQDPRYGESIAKFVPPMGRRAEPSEMASVIAFLMSPAASYVHGAQIVIDGGIDAVMRPTQF
Response: 0.5

All figures here come from patent US10487348B2.
